Recorded values, source ChEMBL document CHEMBL3879901.

# studyTarget: Phosphatidylinositol 4,5-bisphosphate 3-kinase catalytic subunit gamma isoform (Homo sapiens)
# Sequence (P48736 whole entry, canonical isoform): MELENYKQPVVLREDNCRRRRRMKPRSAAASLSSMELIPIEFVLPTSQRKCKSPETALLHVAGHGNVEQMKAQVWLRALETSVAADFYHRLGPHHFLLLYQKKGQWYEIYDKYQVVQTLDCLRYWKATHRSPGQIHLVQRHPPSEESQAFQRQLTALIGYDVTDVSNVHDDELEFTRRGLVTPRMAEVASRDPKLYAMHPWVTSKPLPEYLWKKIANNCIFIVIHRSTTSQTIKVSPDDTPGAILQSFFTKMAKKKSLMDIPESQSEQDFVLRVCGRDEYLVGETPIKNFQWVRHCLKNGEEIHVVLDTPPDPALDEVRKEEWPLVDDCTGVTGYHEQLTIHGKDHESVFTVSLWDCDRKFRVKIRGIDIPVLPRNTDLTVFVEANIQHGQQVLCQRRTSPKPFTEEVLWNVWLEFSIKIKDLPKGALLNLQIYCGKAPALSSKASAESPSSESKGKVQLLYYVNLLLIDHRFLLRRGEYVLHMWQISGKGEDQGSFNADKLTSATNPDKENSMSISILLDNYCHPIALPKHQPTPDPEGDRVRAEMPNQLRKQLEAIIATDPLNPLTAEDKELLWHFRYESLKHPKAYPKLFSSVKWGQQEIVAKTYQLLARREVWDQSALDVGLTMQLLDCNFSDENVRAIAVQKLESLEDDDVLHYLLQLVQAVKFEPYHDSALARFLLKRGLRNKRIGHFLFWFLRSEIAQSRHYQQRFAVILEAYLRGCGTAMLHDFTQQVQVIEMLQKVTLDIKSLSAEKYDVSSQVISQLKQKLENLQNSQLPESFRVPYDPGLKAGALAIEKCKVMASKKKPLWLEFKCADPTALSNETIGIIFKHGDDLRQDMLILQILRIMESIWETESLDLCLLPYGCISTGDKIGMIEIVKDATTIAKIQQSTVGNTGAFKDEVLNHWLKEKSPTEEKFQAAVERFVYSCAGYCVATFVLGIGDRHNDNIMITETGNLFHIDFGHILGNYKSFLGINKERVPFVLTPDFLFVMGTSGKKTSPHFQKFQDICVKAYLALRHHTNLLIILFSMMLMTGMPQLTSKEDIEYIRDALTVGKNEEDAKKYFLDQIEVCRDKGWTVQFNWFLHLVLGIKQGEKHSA
# methodNotes: Inhibition of recombinant human C-terminal His6-tagged p110gamma expressed in insect cells using phosphatidylinositol as substrate in presence of gamma-32P-ATP after 5 mins by thin layer chromatographic method
Recorded IC50 for the following compounds
endpointName: IC50

- structureAsSmiles: "CC(=O)Nc1nc2ccc(-c3nn(Cc4cc5cccc(C)c5c(=O)n4-c4ccccc4C)c4ncnc(N)c34)cc2[nH]1"
  reportedMeasurement: "< 0.1 µM"
- structureAsSmiles: "Cc1ccccc1-n1c(Cn2nc(-c3ccc4nc(N)[nH]c4c3)c3c(N)ncnc32)cc2cccc(C)c2c1=O"
  reportedMeasurement: "< 0.1 µM"
- structureAsSmiles: "Cc1ccccc1-n1c(Cn2nc(-c3nn[nH]n3)c3c(N)ncnc32)cc2cccc(C)c2c1=O"
  reportedMeasurement: "< 0.1 µM"
- structureAsSmiles: "Cc1cccc2cc(Cn3nc(C#C[C@@H](C)O)c4c(N)ncnc43)n(-c3ccccc3F)c(=O)c12"
  reportedMeasurement: "< 1 µM"
